meta.source: ChEMBL document CHEMBL3988442

- study.target: Arginase-2, mitochondrial (Homo sapiens)
- Sequence (whole entry): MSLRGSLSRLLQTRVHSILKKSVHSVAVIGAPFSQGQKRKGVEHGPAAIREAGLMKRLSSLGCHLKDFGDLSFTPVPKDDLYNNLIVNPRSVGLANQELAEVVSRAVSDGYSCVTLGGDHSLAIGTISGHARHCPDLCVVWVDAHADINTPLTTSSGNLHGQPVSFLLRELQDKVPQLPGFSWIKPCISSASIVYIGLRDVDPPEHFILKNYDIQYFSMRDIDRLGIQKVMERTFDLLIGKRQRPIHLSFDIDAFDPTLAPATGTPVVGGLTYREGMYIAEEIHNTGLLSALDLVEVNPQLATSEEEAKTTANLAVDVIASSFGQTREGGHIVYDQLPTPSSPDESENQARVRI
- protocol.notes: in vitro enzyme assay to detect the production of urea directly proportional to the activity of Arginase II
- Format: functional
- Design: scale not given: in the data most compounds retested in dose-response had high values
- test.settings: 33.3 µM
measured.property: Percent Effect (%)
Numbers only, in %.

Lab note: each compound below needs its Percent Effect filled in.
1. CC(=O)c1cn(CCC(=O)NCCC(=O)O)c2ccccc12
2. CC(=O)Nc1nc(C(=O)N2CCCC(n3nc(C)cc3C)C2)cs1 (centres undefined)
3. CC(C)c1nc(C2CCCN2Cc2ccno2)no1 (centres undefined)
4. CC(=O)NCC(=O)N1CCC2(CC1)CN(c1cccnc1)C(=O)CO2
5. CC(C)c1nccn1CCCNC(=O)c1ccc(-c2cncnc2)nc1
6. COc1cccc(C2CCCN2Cc2nc3c(cnn3C)c(=O)[nH]2)c1 (centres undefined)
7. CCCC(NC(=O)c1cc(C)n(C2CC2)c1C)c1nnn[nH]1 (centres undefined)
8. Cc1nn(C)c(Cl)c1C1CCCN1C(=O)c1ccc2c(c1)OCO2 (centres undefined)

Result:
1. -6.16
2. -1.8
3. 2.13
4. 2.87
5. 7.29
6. 3.8
7. 11.5
8. -2

Lab note: each compound below needs its Percent Effect filled in.
1. CCN(CCNC(=O)c1ccccc1Br)C1CC1
2. Cc1ccc(C(=O)N2CCO[C@H]3[C@@H](OCc4ccccn4)CC[C@@H]32)o1
3. Cc1ccc(C#N)c(N2CCC(c3nccn3CCN(C)C)CC2)n1
4. O=C(NCc1csc(Br)c1)c1ccncc1
5. CCN(Cc1ccc(OC)c(F)c1)C(=O)c1ccc(C)[nH]c1=O
6. CN(C)c1ccc(CCNC(=O)NCc2ccc(N(C)C)nc2)cc1

Result:
7.53
11
-2.08
2.8
2.3
-5.21
